# Target Or Test System: Follistatin (Homo sapiens) (UniProt P19883)
# Sequence (P19883 whole entry, looked up): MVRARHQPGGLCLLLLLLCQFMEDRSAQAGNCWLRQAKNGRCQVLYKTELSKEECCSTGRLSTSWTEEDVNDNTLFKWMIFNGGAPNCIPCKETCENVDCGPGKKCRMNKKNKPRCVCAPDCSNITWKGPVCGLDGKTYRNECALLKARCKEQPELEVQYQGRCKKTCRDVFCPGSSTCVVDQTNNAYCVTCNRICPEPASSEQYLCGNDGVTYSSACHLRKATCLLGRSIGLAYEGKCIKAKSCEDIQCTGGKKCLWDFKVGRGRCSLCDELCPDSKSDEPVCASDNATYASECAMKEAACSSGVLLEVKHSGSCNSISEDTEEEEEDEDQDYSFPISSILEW
# Assay Remarks: FST protein binding to printed compounds – biochemical, small-molecule microarray, 635/667 nm fluorescence, primary screen (AID 1132)
# Measurement Setup: 635 nm fluorescence, higher = more signal
Metric: composite z-score
One number for each entry.

As a guide, the following entries are already answered.
[[record]]
compound = "COc1ccc([Si](C)(C)[C@@H]2[C@@H](CCn3cc(CCO)nn3)O[C@]3(C(=O)N(Cc4cccc(N5C(=O)c6cccc7cccc5c67)c4)c4ccccc43)[C@H]2C)cc1"
measured_value = 1.16

[[record]]
compound = "COCCOC(=O)N1C(=O)[C@@]2(c3cc(C#CC4(O)CCCCCC4)ccc31)[C@H](C(=O)Nc1nc3ccccc3s1)[C@H]1C(=O)O[C@H](c3ccccc3)[C@H](c3ccccc3)N1[C@@H]2c1ccccc1OCCO"
measured_value = 1.01

[[record]]
compound = "C=CCC(OC(C)=O)[C@@H]1[C@@H](N(Cc2ccc(-c3cccc(C(F)(F)F)c3)o2)C(=O)Cc2ccc(OC)cc2)c2cc(OCCCO)ccc2N1C(=O)c1ccc2ccccc2c1 (stereo not given in full)"
measured_value = 0.776


Quick request: composite z-score for each listed item, please.
1. O=C1O[C@@H](c2ccccc2)[C@@H](c2ccccc2)N2[C@@H](c3ccc(OCCO)cc3)[C@]3(C(=O)Nc4ccc(C#CCCO)cc43)[C@@H](C(=O)NC[C@H](O)c3ccccc3)[C@H]12
2. COc1ccc([Si](C)(C)[C@H]2[C@H](CCn3cc([C@H](O)c4ccccc4)nn3)O[C@@]3(C(=O)N(C)c4ccccc43)[C@@H]2C)cc1

Return:
1.34
0.862

---

# Assay Remarks: compounds binding Alexa647 anti-His antibody – biochemical, small-molecule microarray, 635 nm fluorescence, artefact control for SMM control protein annotation, primary screen (AID 1128);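 note: score merges feature fluorescence with signal-to-noise for each printed compound spot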
# Measurement Setup: higher = more signal
Answer each item with its documented composite z-score.
One number for each entry.

[[record]]
compound = "CCCC[C@H]1C[C@@H]1[C@@H]1N(P(=O)(c2ccccc2)c2ccccc2)C[C@@](O)(c2ccccc2)CC12CC2"
measured_value = 0.127

[[record]]
compound = "OCC1C=C(/C=C/c2ccccc2)CN1Cc1ccccc1Br (stereo not drawn)"
measured_value = 1.5

[[record]]
compound = "[N-]=[N+]=NCc1ccccc1[C@H]1OC(c2ccc(OCCCO)cc2)=N[C@@]1(Cc1ccccc1)C(=O)N1CCCCC1"
measured_value = 0.777


Quick request: composite z-score for each listed item, please.
1. CC(=O)NCCCC[C@@H]1NC(=O)[C@H]2C[C@@H](C(=O)NCCCCCNC(=O)CS)[C@@H](c3ccc(O)cc3)N2C1=O
2. CC(=CC1CCCCC1)[C@@H](NC(=O)c1cccnc1)c1ccc(-c2ccccc2)cc1
3. C=C(CCCC)C(=O)CC[C@H](OC(=O)c1cccnc1)c1ccc(OCCO)cc1
4. CC(C)[Si](C#CCCCC#N)(O[C@H](c1ccccc1)c1cn(Cc2cccc(Cl)c2)nn1)C(C)C
5. O=C1C2C=CC(C(O)c3cc(C(F)(F)F)cc(C(F)(F)F)c3)N(Nc3ccccc3)C2C(=O)N1c1ccccc1 (stereo not drawn)

Return:
[2.12, 0.219, 0.631, 0.822, 0.692]

---

Answer each item with its documented composite z-score.
# Assay Remarks: probe aShh binding to arrayed compounds – biochemical, biotinylated probe, 635/667 nm fluorescence, primary screen (AID 1114);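 note: probe is biotin-labelled aShh protein from a stem cell growth factor screen; measures binding of labelled protein to compounds printed on the slide; score merges feature fluorescence at 667 nm with signal-to-noise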
# Measurement Setup: small-molecule microarray, higher = more signal
Numbers only.

As a guide, the following entries are already answered.
[[record]]
smiles_input = "CC(C)Cc1ccc(CN2CC[C@@H](N)C2)cc1"
measured_value = -0.147

[[record]]
smiles_input = "COC(=O)C(CC#Cc1ccc2c(c1)[C@]1(C(=O)N2)[C@H](c2ccc(O)cc2)N2[C@H](c3ccccc3)[C@H](c3ccccc3)OC(=O)[C@H]2[C@@H]1C(=O)N1CCN(c2ncccn2)CC1)C(=O)OC"
measured_value = -0.0143

[[record]]
smiles_input = "O=C1O[C@@H](c2ccccc2)[C@@H](c2ccccc2)N2[C@@H](c3ccccc3OCCO)[C@]3(C(=O)Nc4ccc(C#CC5(O)CCCCCC5)cc43)[C@@H](C(=O)N3CCN(c4ncccn4)CC3)[C@H]12"
measured_value = -0.0234


# input for lookup
Enquiry: Request the reported composite z-score associated with COC(=O)[C@@]1(Cc2ccc(OC)cc2)[C@H]2c3cc(C(=O)N4CCCC4)n(CCc4ccc(O)c(O)c4)c3C[C@H]2CN1C(=O)c1ccccc1
Return: -0.0977
